Data origin: the supplement of paper PMC4862054

Entries and their normalised viability values follow.
System: DU-4475
assay_notes: normalised viability (% of control), CellTiter-Blue; higher = more viable cells (about 100 = DMSO control)
measurement_conditions: incubation time: 72 h
Provide only the numeric value, understood in %.

For orientation, consider the following solved cases.
> print(dat)
                                   compound   target                metric  units.symbol  experimental.value
1  C[C@]1(O)C[C@@H](c2nc(-c3ccc4ccc(-c5ccccc5)nc4c3)c3c(N)nccn32)C1 [OSI-906] (10000 nM)  DU-4475  normalised viability             %                92.6
2  Nc1ncn([C@@H]2O[C@H](CO)[C@@H](O)[C@H]2O)c(=O)n1 [Azacitidine] (10000 nM)  DU-4475  normalised viability             %                77.7

Q. Form field - read-out: normalised viability; system: DU-4475; submitted item: Cn1cnc2c(F)c(Nc3ccc(Br)cc3Cl)c(C(=O)NOCCO)cc21 [Selumetinib] (10000 nM)
A. 0.33

Q. Form field - read-out: normalised viability; system: DU-4475; submitted item: C[C@]12CC[C@@H]3c4ccc(OC(=O)N(CCCl)CCCl)cc4CC[C@H]3[C@@H]1CC[C@@H]2O [Estramustine] (990 nM)
A. 89.9

Q. Form field - read-out: normalised viability; system: DU-4475; submitted item: COc1cc(F)c(F)c(Nc2ccc(I)cc2F)c1NS(=O)(=O)C1(C[C@H](O)CO)CC1 [RDEA119] (10000 nM)
A. 0.93

* * *

Entries and their normalised response values follow.
System: CAL-148
assay_notes: normalised response (% of control), CellTox Green; higher = less cell death (100 = DMSO, 0 = benzethonium chloride kill control)
measurement_conditions: incubation time: 72 h
Provide only the numeric value, understood in %.

For orientation, consider the following solved cases.
> print(dat)
                                   molecule               metric  experimental.value
1  C[C@]12CC[C@@H]3c4ccc(OC(=O)N(CCCl)CCCl)cc4CC[C@H]3[C@@H]1CC[C@@H]2O [Estramustine] (1000 nM)  normalised response                46.8
2  CC1(C)CNc2cc(NC(=O)c3cccnc3NCc3ccncc3)ccc21 [Motesanib] (1000 nM)  normalised response                 103
3  O=C1CN2Cc3c(ccc(Cl)c3Cl)N=C2N1 [Anagrelide] (10000 nM)  normalised response                60.6

Q. Which normalised response is reported for this molecule? Cn1cnc2c(F)c(Nc3ccc(Br)cc3Cl)c(C(=O)NOCCO)cc21 [Selumetinib] (100 nM)
A. 90.4

* * *

Entries and their normalised viability values follow.
Tested on: HCC1143
assay_notes: normalised viability (% of control), CellTiter-Blue; higher = more viable cells (100 = DMSO, 0 = benzethonium chloride kill control)
measurement_conditions: incubation time: 72 h
I'd appreciate it if you included the unit after the number.

> print(dat)
                                   compound                metric  experimental.value
1  Cn1cnc2c(F)c(Nc3ccc(Br)cc3Cl)c(C(=O)NOCCO)cc21 [Selumetinib] (1 nM)  normalised viability               90.6%
2  COc1cc2c(cc1O)CC[C@@H]1[C@@H]2CC[C@]2(C)[C@@H](O)CC[C@@H]12 [2-methoxyestradiol] (1 nM)  normalised viability               88.9%
3  C[C@]1(O)C[C@@H](c2nc(-c3ccc4ccc(-c5ccccc5)nc4c3)c3c(N)nccn32)C1 [OSI-906] (1 nM)  normalised viability               96.8%

Q. Which normalised viability is reported for this compound? O=NN(CCCl)C(=O)NCCCl [Carmustine] (1 nM)
A. 90.5%
